Assay: protease stability score; higher = more stable; yeast display proteolysis, trypsin and chymotrypsin;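 further: relative to predicted unfolded state with 0 unfolded-like and 1 meaning tenfold more protease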
Measurement Name: protease stability score
Numbers only.

DESTKAAEDIFEIIREMLETGDEETTRRLFDPDAKIIIGDKEIHGRENIELFMRLWLKQFDHVHDMTIRRMEIQGDKVIMDTEIHGTINGQRRTIRTRWIVVKINGKWSIHEVYFT : 2.02
SEDKEADEIIIEKIMRALTTGDENLWKRLLDPNVRFEYDGVEMHGWEEIKKLLERIDHFHVDDHKIKDVRIIDGRIDNYGRLRGTIDINGREIHTILHVRILVLKIDGKWTVESEHSK : 1.43
SEEEHEIRRAVEHWYRSLHTGDEEESIDLVDPHTITIVNGREVHGRHLMYEIMRKFKNAKIEFEITHHEVVNGRADVNMRLTVHIGDKTYETIIHLHTEKVNGRWTVRHWEVK : 1.46

Hello, I would appreciate it if you could give protease stability score for each entry below.
1. DREHREREELLNETNKAIATGDEETLRRLFDPNVQIEQGEYHHHGWEWVKKLMEEMRIEVEHVHDRRVDMFENHVRVDTHVHLRFIIGDKIFHVNLRQEIVMHKVNGVWIFKSFKYH
2. DESEESALKFLKEWREHFRTGNEDHMEELADPNVRVVIGDKEYHGWEETSRLISEKLRHMRVKFVLHTIRVVDGRIHVKSSLIIEVGDKELRVETSYHFEKVNGRWRLRVIHQE
3. DEDEYMAKEMSELLIHLLLTGDEEHFRKFADPNVRLIIGEFESHGREEALRLLRILHRDYGIKHIHFRLRHIHQIGDKVNIHSQVELRQGDKHNSHEMTVIIWKVNGRWVIHSIDIV
4. SEHEEDARRIFERWINSVNTGDERLIYEMHDPHVRVEINGREFHGREEIHKLAHRIDHFKIHRIIERDVRLVNGRVELHGEIDYRFFFDGKELSSIHSLHMTLTKVNGRWSIEEERVK
5. DEEHEDMDKYSKLLVEMLKTGDEHIFKILADPHVRIDINGREYHGWEDWVEVVRELRIHRLHFTHMEIQGDKLHLHLKSKFSFDGRVHEIEIRIHAKKVNGRWVIKEIRII
6. DEDRQDAEYALRLWLETWVTGDEDTLLRLMDPHYRLEIGEYHRHGRENVVTFLRFLVEHLGIKHTHVEVHDLDSQGDKVRAHTTLHNKYNGVELVIDSEIILTKINGRWYFKSMHFG

1: 1.4; 2: 1.27; 3: 2.38; 4: 0.39; 5: 2.29; 6: 1.2

Count: 2. Required value per item: protease stability score.
1. NEDHDVLNDLMTDHVHAVLTGDFRTLIHNIDPHTRVDINGVHFHGREEAVHLFEDLANRVPGVKLDVEEWRTYGDKLRSNVRWHFDGRTIDIHLVFLKINGKWLLESVKIN
2. SEEHHDAERAMEEFLKVMNTGNEKLLRDLIDPNVRTEINGQEIIGWKSMHRIMREWGVDNIRVHLRRLEVQGEKLHLEEELNVNGRTSKMEIVALKINGRWVVSEIRFH

1. 1.9
2. 2.03
